Biological target: T1, SARS-CoV-2 N protein oligomerization domain (SARS-CoV-2, UniProt P0DTC9 247-364)
T1 construct: also called N olig. domain; OD
Assay: Octet, KD (nM) heat map
Observable: binding result

1. NP3-E2 (antibody, V domains shown) VH: EVQLQQSGPEVVRPGVSVKISCKGSGYTFTDYALHWVKQSHTKSLEWIGVISTYSGTTNYNQNFKGKATMAVDKSSSTAYMELARLTSEDSAIYYCASGGNYGLDYWGQGTSVTVSS VL: DIVMTQSHKFMSTSVGDRVSITCKANQDVGSAVAWYQEKPGQSPKLLIYWTSTRHTGVPDRFTGNGSGTDFTLTISNVQSEDLVDYFCQQYSRYPLTFGSGTKLELK	no binding
2. NP3-E4 (antibody, V domains shown) VH: EVQLVESGPGLVAPSQSLSITCTVSGFSLTSYGVSWVRQPPGKGLEWLGVIWGDGSTNYHSALISRLSINKDNSKSQVFLRLNSLQTDDTATYYCAKEDDGYLFYFDYWGQGTTLTVSS VL: DIKMTQSPSSLSASLGDRVTISCSASQDISDYLNWYQQKPDGTVKLLIYYTSSLHSGVPSRFSGSGSGTDYSLTISNLEPEDIATYYCQQYSKLPYTFGGGTKLEIK	no binding
3. NP3-H12 (antibody, V domains shown) VH: QIQLVQSGPELKKPGETVKISCKASGYMFTNYGMNWVKQAPGKGLKWMGWINTYTGEPTYADDFKGRFAFSLDISGSTAYLQINNLKNEDMATYFCARTREIWGNVDFPYWGQGTLVTVSA VL: DILMTQAAPSLSVSVGETVTITCRASENIYSDLAWYQHKEGKSPQLLVYAATDLADGVPSRFSGSGSGTQYSLKINSLQSEDFGNYYCQHFWGTPWTFGGGTKLEIK	no binding
